Experiment: Partition coefficient (logP)
Type: physicochemical
Conditions: octanol/water; read-out: logP
Measure: logP

1. CCN(CC)C(=O)C1CCCN(Cc2ccccc2Cl)C1 (stereo not given)
2. CCN(CC)C(=O)C1CCCN(Cc2ccc(-c3ccc(CN4CCCC(C(=O)N(CC)CC)C4)cc3)cc2)C1 (stereo not given)
Prompt: Recorded logP values differ for 1 and 2 ; which one is higher? Your answer should be the label of the entry you select.
Response: 2

----------
Assay: Partition coefficient (logP)
Type: physicochemical
Settings: octanol/water; read-out: logP
Measure: logP

Below are worked cases with known answers.
Compound	Numeric result
CCOC(=O)C1CCCN(Cc2ccc(CN3CCCC(C(=O)OCC)C3)cc2)C1 (stereo not given)	4.21
CCN(CC)C(=O)C1CCCN(CCCCCCCCCCN2CCCC(C(=O)N(CC)CC)C2)C1 (stereo not given)	5.92
CCCCCCN(C)C(=O)C1CCCN(Cc2ccc(CN3CCCC(C(=O)N(C)CCCCCC)C3)cc2)C1 (stereo not given)	6.59

1. Br.CCN(CC)C(=O)C1CCCN(Cc2ccc(C(C)(C)C)cc2)C1 (stereo not given)
2. CC(O)C1CCCN(Cc2ccc(CN3CCCC(C(C)O)C3)cc2)C1 (stereo not given)
Prompt: Lab note: record which item had the higher logP, 1 or 2 . In your reply, give the label of the chosen option.
Response: 1
